Where do these numbers come from? They come from PubChem BioAssay (NCI).

Test system: OVCAR-8 ovarian
Procedure text: NCI-60 one-dose screen, 48 h
Details: 10 µM unless noted
About 83,000 compounds went through this panel and 20% of them were active in at least one assay; those are over-represented in the sample as a whole. Activity calls are given as the source filed them. Rule for the calls: active = growth percent below 10; inactive = the rest.
Outcomes: active, inactive

* CN1C(=S)N(C)C2C1NN=C1SC(c3ccccc3)=CC(=O)N12 (centres undefined) | inactive
* CS(=O)(=O)Nc1ccc(-c2nn(-c3ccc(S(C)(=O)=O)cc3)cc2/C=C/C(=O)c2ccc(NC(=O)CO[N+](=O)[O-])cc2)cc1 | inactive
* N[C@@H](Cc1cn(-c2c3ccccc3nc3ccccc23)nn1)C(=O)O | inactive
* COc1cc(/C=C/C(=O)c2cc(OC)c(OC)c(OC)c2)ccc1Oc1nc(NCCO)nc(N2CCOCC2)n1 | inactive
* Clc1ccc2c(NCCCn3ccnc3)c3oc4ccccc4c3nc2c1 | inactive
* C[C@@H](Nc1c(C#N)cnc2ccc(-c3cnc(N)nc3)cc12)c1ccccc1 | inactive
* O=C(N/N=C/c1ccc(Cl)s1)c1[nH]c2ccc(Br)cc2c1-c1ccccc1 | active
* CCOC(=O)c1c(Nc2ccccc2)nn2c(N)c(C#N)c(-c3ccccc3)nc12 | inactive
* C[C@@H]1CN(c2ccc3ncc(C#Cc4cncc(C(=O)Nc5ccc(CN6CCN(C)CC6)c(C(F)(F)F)c5)c4)n3n2)C[C@H](C)O1 | active
* Nc1nc(N)c2c(n1)NC(c1ccc(C(F)(F)F)cc1)CC(c1ccc(Nc3nc(NCCO)nc(Nc4ccc(Cl)cc4)n3)cc1)=N2 (centres undefined) | active
* Cn1cc(-c2cc(N)n3nc(-c4cn(C)c5ccc(Cl)cc45)cc3n2)c2cc(Cl)ccc21 | inactive
* CCCC(=O)NC(c1cccc(N(C)C)c1)c1cc(C)c2cccnc2c1O (centres undefined) | inactive
* O=C1Nc2cc(Cl)ccc2/C1=C\c1ccc(OCc2ccc(Br)cc2F)cc1 | active
* CCOc1ccc2nc(NC(=O)c3ccc(C(F)(F)F)cc3)sc2c1 | inactive
* O=[N+]([O-])c1ccc(O)c2ncccc12 | inactive
* CCN1C(=S)N(c2ccccc2)C2NC(=O)N(/N=C/C=C/c3ccccc3OC)C21 (centres undefined) | inactive
* Cc1cccc(/C=C/c2nn3c(-c4ccco4)nnc3s2)c1 | inactive
* COc1cc2nc(-c3ccc(C)cc3)cc(OCCCNCC3CCCO3)c2cc1OC (centres undefined) | inactive
* COc1cccc(-c2nn(-c3ccccc3)cc2-c2ccnc(N3CCN(C(=O)c4ccccc4)CC3)c2)c1 | inactive
